System: KM20L2 colon
run-description: NCI tumour cell line growth inhibition, 48 h
readout: TGI

Entry CCC1=C(C[C@H]2NCCc3cc(OC)c(OC)cc32)C[C@H]2c3cc(OC)c(OC)cc3CCN2C1 , KM20L2 colon data, TGI value: 0.14 µM

Simply: CN1CCC(c2c(O)cc(O)c3c(=O)cc(-c4ccccc4Cl)oc23)C(O)C1 (stereo unspecified) , KM20L2 colon, TGI = > 100 µM

Item O=[N+]([O-])c1cc(/C=N\NS(=O)(=O)c2ccc(Cl)cc2)c(O)c([N+](=O)[O-])c1 was tested on KM20L2 colon; the reported TGI is 74.1 µM

Measured TGI (KM20L2 colon), entry Cc1cc(=O)[nH]c(NNC(C#N)c2ccccc2O)n1 (stereo unspecified) : > 100 µM

Kindly note: KM20L2 colon, O=C(O)c1c2c(cc3c(=O)c4ccccc4[nH]c13)CCCC2 , TGI value reported: > 100 µM

Log: KM20L2 colon, molecule C=CCC12CC(=O)CCC1c1ccc(OC)cc1C2=O (stereo unspecified) , TGI = > 100 µM

Entry CN1CCN=C1c1nnn(-c2ccc([N+](=O)[O-])cc2)c1-c1ccccc1 under KM20L2 colon had TGI of > 100 µM

Form: item COC(=O)C(=O)C(C(=O)C(=O)Nc1ccccc1[N+](=O)[O-])c1nc2ccc([N+](=O)[O-])cc2[nH]c1=O (stereo unspecified) ; test system KM20L2 colon; TGI: > 100 µM

Result for CC1=NN(c2ccccc2)C(=O)C12[C@H](c1ccccc1)C2(C#N)C#N (stereo partly specified) , tested on KM20L2 colon, TGI: 27.3 µM

Summary line: Cc1ccc(N2C(=O)/C(=C/c3ccc(N(CCC#N)CCC#N)cc3)N=C2COc2ccc(Cl)cc2Cl)cc1 , KM20L2 colon, reported TGI = > 100 µM

Recorded TGI for O=C(c1ccccc1)c1nnn(Cc2ccccc2Cn2nnc(C(=O)c3ccccc3)c2C(=O)c2ccccc2)c1C(=O)c1ccccc1 on KM20L2 colon was > 100 µM

# CC(C)N(C(=O)C12C3C4C5(C(=O)O)C(C1C35I)C42C(=O)O)C(C)C (stereo unspecified) with KM20L2 colon: TGI is > 100 µM

Lab note: molecule CC1=C(CO)C(=O)O[C@@H]([C@@H](C)[C@H]2CC[C@H]3[C@@H]4C[C@H]5O[C@]56[C@@H](O)C=CC(=O)[C@]6(C)[C@H]4CC[C@]23C)C1 tested on KM20L2 colon; recorded TGI was 1.47 µM

Given the molecule Cc1cc2c(=O)c3ccc(Cl)cc3[nH]c2c(C(N)=O)c1C and test system KM20L2 colon, the measured TGI is > 100 µM

Reading of TGI for CCOC(=O)[C@@]12C(C)=CC(=O)O[C@]1(C)C1C(=O)NC(=O)C12 (stereo partly specified) with KM20L2 colon: > 100 µM

Tested system KM20L2 colon; TGI recorded for COc1ccc(N2C(=O)[C@@H](N=[N+]=[N-])[C@@H]2[C@H]2COC(C)(C)O2)cc1 was > 100 µM
